Data provenance is patent US20210070881A1.

# kon listing for each entry below
Biological target: T1, recombinant BACE1 (BACE1 extracellular domain, R&D Systems Cat#931-AS) (UniProt P56817 22-457)
T1 construct: extracellular domain; also called BACE1 extracellular domain protein
T1 sequence (P56817 22-457): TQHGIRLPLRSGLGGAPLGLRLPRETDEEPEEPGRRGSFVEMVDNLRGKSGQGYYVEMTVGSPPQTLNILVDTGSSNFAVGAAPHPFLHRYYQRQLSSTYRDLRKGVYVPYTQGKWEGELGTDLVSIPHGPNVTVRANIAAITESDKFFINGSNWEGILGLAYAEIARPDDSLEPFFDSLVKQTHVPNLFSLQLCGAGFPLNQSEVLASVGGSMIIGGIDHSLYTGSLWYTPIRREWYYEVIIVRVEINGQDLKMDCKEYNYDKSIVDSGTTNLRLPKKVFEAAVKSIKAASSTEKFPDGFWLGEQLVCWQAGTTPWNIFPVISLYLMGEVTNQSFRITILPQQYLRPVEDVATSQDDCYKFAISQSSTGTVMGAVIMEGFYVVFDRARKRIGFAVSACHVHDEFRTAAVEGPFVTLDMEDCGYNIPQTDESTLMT
Assay: SPR Biacore T200, IgG captured, BACE1 analyte
Description: The affinity of chimeric IgG antibodies for recombinant BACE1 was determined by surface plasmon resonance using a Biacore™ T200 instrument. Biacore™ Series S CMS sensor chips were immobilized with monoclonal mouse anti-human IgG (Fc) antibody (e.g., using a human antibody capture kit from GE Healthcare). […] Each sample was analyzed with a 3-minute association and a 10-minute dissociation. […]
Supply the numeric figure in M⁻¹ s⁻¹, leaving out any unit text.

binder="2E1 (antibody, human IgG1, V domains shown, chimeric, human IgG1/kappa; also called Clone 2E1) VH: EVQLQQPGTELVRPGTSVKLSCKASGYTFTNFWMHWVKQRPGQGLEWIGVINPSDTYTKFNQKFRGKATLTVDTSSSTAYMQLSSLTSEDSAVYFCARPTVGLDYWGQGTSVTVSS VL: DIVMTQSQKFMPTSVGDRVSVTCKASQNVGSNVAWYQQKSGQSPKALIYSASHRYSGVPDRFTGSGSGTDFTLTISNVQSEDLAEYFCQQYNSYPYTFGGGTKLEIK" result=18000

With those in mind, consider the next binder.
Lookup result for 3C11 (antibody, human IgG1, V domains shown, chimeric, human IgG1/kappa; also called Clone 3C11) VH: EVQLQQSGADLMKPGASVKLSCKATGYTFTGYWIEWVKQRPGHGLEWIGEIFPGSVSTNYNEKFKGKATFTADTSSNTAYMQLSSLTTEDSAIYYCARSPIYYDYADYWGQGTTLTVSS VL: DIVLSQSHKFMSTSVGDRVSITCKASQDVGTAVAWYQQKPGQSPKALIYLASNRHTGVPDRFTGSGSGTDFTLTISNVQSEDLAEYFCQQYNSYPYTFGGGTRLEIK ; measured kon: 21000
